The entries below are paired with their reported activity coefficient.
- procedure.summary: activity coefficient (dimensionless); of the first substance listed, at infinite dilution; xn = mol fraction of the nth substance listed
- cond: 388.15 K; 101 kPa; Liquid; Chromatography; x1 = 0
reported.endpoint: activity coefficient

molecule | experimental.value
CC(C)CC(C)C [2,4-dimethylpentane] + CCCCCCCCCCCCCCCCCCC(CCCCCCCCCCCCCCCCCC)CCCCC(CCCCCCCCCCCCCCCCCC)CCCCCCCCCCCCCCCCCC | 0.392
CCCCCCCCCC [decane] + CCCCCCCCCCCCCCCCCCC(CCCCCCCCCCCCCCCCCC)CCCCC(CCCCCCCCCCCCCCCCCC)CCCCCCCCCCCCCCCCCC | 0.42
C=CCCCCCCCC [1-decene] + CCCCCCCCCCCCCCCCCCC(CCCCCCCCCCCCCCCCCC)CCCCC(CCCCCCCCCCCCCCCCCC)CCCCCCCCCCCCCCCCCC | 0.413
C1CCCCCCC1 [cyclooctane] + CCCCCCCCCCCCCCCCCCC(CCCCCCCCCCCCCCCCCC)CCCCC(CCCCCCCCCCCCCCCCCC)CCCCCCCCCCCCCCCCCC | 0.264

====

The entries below are paired with their reported activity coefficient.
- procedure.summary: activity coefficient (dimensionless); of the first substance listed, at infinite dilution; xn = mol fraction of the nth substance listed
- cond: 388.15 K; 101 kPa; Liquid; Chromatography; x1 = 0
reported.endpoint: activity coefficient

compound | reported.endpoint | experimental.value
C[C@H]1CC[C@H](C)CC1 [trans-1,4-dimethylcyclohexane] + CCCCCCCCCCCCCCCCCCC(CCCCCCCCCCCCCCCCCC)CCCCC(CCCCCCCCCCCCCCCCCC)CCCCCCCCCCCCCCCCCC | activity coefficient | 0.295
C#CCCCCC [1-heptyne] + CCCCCCCCCCCCCCCCCCC(CCCCCCCCCCCCCCCCCC)CCCCC(CCCCCCCCCCCCCCCCCC)CCCCCCCCCCCCCCCCCC | activity coefficient | 0.407
C1CCCCCCCCC1 [cyclodecane] + CCCCCCCCCCCCCCCCCCC(CCCCCCCCCCCCCCCCCC)CCCCC(CCCCCCCCCCCCCCCCCC)CCCCCCCCCCCCCCCCCC | activity coefficient | 0.281
C=CCCCCCC [oct-1-ene] + CCCCCCCCCCCCCCCCCCC(CCCCCCCCCCCCCCCCCC)CCCCC(CCCCCCCCCCCCCCCCCC)CCCCCCCCCCCCCCCCCC | activity coefficient | 0.374

====

- procedure.summary: activity coefficient (dimensionless); of the first substance listed, at infinite dilution; xn = mol fraction of the nth substance listed
- cond: 388.15 K; 101 kPa; Liquid; Chromatography; x1 = 0
Label rule, in plain words: activity coefficient of 0.4 and up is true, under 0.4 is false.

compound | label.value
CCCCCCCCCCC [undecane] + CCCCCCCCCCCCCCCCCCC(CCCCCCCCCCCCCCCCCC)CCCCC(CCCCCCCCCCCCCCCCCC)CCCCCCCCCCCCCCCCCC | true
C1=CCC=CC1 [1,4-cyclohexadiene] + CCCCCCCCCCCCCCCCCCC(CCCCCCCCCCCCCCCCCC)CCCCC(CCCCCCCCCCCCCCCCCC)CCCCCCCCCCCCCCCCCC | false
CC#CCCC [2-hexyne] + CCCCCCCCCCCCCCCCCCC(CCCCCCCCCCCCCCCCCC)CCCCC(CCCCCCCCCCCCCCCCCC)CCCCCCCCCCCCCCCCCC | false
CC(C)C(C)(C)C [2,2,3-trimethylbutane] + CCCCCCCCCCCCCCCCCCC(CCCCCCCCCCCCCCCCCC)CCCCC(CCCCCCCCCCCCCCCCCC)CCCCCCCCCCCCCCCCCC | false
Cc1ccccc1 [toluene] + CCCCCCCCCCCCCCCCCCC(CCCCCCCCCCCCCCCCCC)CCCCC(CCCCCCCCCCCCCCCCCC)CCCCCCCCCCCCCCCCCC | false
CC(C)C(C)C(C)C [2,3,4-trimethylpentane] + CCCCCCCCCCCCCCCCCCC(CCCCCCCCCCCCCCCCCC)CCCCC(CCCCCCCCCCCCCCCCCC)CCCCCCCCCCCCCCCCCC | false

====

- procedure.summary: activity coefficient (dimensionless); of the first substance listed, at infinite dilution; xn = mol fraction of the nth substance listed
- cond: 403.15 K; 101 kPa; Liquid; Chromatography; x1 = 0
The entries below are paired with their reported activity coefficient.
reported.endpoint: activity coefficient

molecule | experimental.value
CCCCCCCCC [nonane] + CCCCCCCCCCCCCCCCCCC(CCCCCCCCCCCCCCCCCC)CCCCC(CCCCCCCCCCCCCCCCCC)CCCCCCCCCCCCCCCCCC | 0.403
CC(C)CC(C)(C)C [2,2,4-trimethylpentane] + CCCCCCCCCCCCCCCCCCC(CCCCCCCCCCCCCCCCCC)CCCCC(CCCCCCCCCCCCCCCCCC)CCCCCCCCCCCCCCCCCC | 0.401
C=CCCCCCCC [1-nonene] + CCCCCCCCCCCCCCCCCCC(CCCCCCCCCCCCCCCCCC)CCCCC(CCCCCCCCCCCCCCCCCC)CCCCCCCCCCCCCCCCCC | 0.395
CC(C)CC(C)C [2,4-dimethylpentane] + CCCCCCCCCCCCCCCCCCC(CCCCCCCCCCCCCCCCCC)CCCCC(CCCCCCCCCCCCCCCCCC)CCCCCCCCCCCCCCCCCC | 0.394

// data source = the NIST ThermoML archive (doi:10.1016/j.fluid.2006.07.015)
